molecular target: CREB-binding protein (Homo sapiens)
Sequence (Q92793 whole entry): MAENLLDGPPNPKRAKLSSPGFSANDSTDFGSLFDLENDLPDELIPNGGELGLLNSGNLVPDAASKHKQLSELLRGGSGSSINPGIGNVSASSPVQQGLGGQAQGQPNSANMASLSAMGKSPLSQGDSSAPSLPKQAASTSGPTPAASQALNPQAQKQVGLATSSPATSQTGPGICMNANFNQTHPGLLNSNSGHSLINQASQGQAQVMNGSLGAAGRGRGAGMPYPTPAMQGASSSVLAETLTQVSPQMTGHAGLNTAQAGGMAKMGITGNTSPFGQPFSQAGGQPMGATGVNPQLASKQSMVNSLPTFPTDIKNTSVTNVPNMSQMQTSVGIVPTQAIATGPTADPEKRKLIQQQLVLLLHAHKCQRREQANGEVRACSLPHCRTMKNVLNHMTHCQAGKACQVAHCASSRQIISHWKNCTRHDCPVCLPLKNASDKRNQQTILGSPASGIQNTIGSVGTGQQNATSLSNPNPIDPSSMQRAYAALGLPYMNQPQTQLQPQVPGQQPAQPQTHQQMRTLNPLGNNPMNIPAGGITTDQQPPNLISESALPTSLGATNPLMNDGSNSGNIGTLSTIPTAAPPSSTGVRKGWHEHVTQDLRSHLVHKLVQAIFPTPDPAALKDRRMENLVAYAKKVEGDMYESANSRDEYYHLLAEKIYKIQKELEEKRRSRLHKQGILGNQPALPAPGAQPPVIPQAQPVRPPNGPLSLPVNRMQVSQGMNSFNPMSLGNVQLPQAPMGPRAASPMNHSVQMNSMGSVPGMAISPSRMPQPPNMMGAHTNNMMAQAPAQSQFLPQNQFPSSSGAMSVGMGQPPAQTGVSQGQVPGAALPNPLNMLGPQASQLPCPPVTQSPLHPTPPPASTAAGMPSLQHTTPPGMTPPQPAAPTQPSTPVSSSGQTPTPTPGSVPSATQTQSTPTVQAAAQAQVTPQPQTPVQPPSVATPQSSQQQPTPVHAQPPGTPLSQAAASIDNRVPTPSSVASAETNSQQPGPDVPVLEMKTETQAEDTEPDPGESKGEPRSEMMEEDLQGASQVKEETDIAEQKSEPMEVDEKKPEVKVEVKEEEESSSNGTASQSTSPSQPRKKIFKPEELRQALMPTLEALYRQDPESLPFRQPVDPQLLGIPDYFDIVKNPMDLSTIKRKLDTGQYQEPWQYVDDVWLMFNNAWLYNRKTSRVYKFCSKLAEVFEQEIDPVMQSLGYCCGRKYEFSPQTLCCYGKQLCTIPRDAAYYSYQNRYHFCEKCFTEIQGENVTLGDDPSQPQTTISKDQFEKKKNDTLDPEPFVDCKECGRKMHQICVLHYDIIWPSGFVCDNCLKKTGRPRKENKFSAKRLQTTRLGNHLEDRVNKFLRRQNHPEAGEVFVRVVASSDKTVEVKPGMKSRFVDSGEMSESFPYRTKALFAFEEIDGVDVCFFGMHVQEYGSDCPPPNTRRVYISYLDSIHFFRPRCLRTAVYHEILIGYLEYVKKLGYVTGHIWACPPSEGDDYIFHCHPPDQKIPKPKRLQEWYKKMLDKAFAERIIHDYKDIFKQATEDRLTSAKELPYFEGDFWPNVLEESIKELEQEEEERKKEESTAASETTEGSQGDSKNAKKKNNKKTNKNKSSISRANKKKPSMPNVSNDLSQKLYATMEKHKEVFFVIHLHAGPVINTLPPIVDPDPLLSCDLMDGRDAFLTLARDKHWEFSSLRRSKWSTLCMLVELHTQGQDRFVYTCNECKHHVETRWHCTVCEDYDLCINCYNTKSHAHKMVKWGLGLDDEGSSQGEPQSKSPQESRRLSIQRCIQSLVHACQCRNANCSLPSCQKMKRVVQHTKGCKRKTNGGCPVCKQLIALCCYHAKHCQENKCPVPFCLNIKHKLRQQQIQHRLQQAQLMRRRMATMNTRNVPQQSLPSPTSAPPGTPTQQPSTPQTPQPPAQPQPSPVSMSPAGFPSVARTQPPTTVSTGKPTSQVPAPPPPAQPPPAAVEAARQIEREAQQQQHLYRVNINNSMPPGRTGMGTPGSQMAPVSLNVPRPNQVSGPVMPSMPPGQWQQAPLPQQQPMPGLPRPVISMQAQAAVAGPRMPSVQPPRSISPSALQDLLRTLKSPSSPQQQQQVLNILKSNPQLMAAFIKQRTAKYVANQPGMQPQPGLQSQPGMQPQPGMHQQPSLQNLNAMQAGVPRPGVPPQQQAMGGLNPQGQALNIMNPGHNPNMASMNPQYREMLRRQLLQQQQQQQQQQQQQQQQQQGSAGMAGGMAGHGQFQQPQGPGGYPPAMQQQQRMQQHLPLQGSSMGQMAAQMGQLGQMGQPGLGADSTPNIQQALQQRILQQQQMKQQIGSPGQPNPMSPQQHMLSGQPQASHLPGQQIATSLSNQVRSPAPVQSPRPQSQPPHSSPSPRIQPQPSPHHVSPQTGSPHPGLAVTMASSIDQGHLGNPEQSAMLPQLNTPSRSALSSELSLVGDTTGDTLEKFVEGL
readout.label: Kd

Reported Kd of Cc1nnc2n1-c1ccccc1C(c1ccccc1)=NC2NC(=O)OCc1ccccc1 (stereo unspecified) : > 50 µM

* * *

biological target: ATPase family AAA domain-containing protein 2 (Homo sapiens)
Sequence (Q6PL18 whole entry, the tested form may be a part): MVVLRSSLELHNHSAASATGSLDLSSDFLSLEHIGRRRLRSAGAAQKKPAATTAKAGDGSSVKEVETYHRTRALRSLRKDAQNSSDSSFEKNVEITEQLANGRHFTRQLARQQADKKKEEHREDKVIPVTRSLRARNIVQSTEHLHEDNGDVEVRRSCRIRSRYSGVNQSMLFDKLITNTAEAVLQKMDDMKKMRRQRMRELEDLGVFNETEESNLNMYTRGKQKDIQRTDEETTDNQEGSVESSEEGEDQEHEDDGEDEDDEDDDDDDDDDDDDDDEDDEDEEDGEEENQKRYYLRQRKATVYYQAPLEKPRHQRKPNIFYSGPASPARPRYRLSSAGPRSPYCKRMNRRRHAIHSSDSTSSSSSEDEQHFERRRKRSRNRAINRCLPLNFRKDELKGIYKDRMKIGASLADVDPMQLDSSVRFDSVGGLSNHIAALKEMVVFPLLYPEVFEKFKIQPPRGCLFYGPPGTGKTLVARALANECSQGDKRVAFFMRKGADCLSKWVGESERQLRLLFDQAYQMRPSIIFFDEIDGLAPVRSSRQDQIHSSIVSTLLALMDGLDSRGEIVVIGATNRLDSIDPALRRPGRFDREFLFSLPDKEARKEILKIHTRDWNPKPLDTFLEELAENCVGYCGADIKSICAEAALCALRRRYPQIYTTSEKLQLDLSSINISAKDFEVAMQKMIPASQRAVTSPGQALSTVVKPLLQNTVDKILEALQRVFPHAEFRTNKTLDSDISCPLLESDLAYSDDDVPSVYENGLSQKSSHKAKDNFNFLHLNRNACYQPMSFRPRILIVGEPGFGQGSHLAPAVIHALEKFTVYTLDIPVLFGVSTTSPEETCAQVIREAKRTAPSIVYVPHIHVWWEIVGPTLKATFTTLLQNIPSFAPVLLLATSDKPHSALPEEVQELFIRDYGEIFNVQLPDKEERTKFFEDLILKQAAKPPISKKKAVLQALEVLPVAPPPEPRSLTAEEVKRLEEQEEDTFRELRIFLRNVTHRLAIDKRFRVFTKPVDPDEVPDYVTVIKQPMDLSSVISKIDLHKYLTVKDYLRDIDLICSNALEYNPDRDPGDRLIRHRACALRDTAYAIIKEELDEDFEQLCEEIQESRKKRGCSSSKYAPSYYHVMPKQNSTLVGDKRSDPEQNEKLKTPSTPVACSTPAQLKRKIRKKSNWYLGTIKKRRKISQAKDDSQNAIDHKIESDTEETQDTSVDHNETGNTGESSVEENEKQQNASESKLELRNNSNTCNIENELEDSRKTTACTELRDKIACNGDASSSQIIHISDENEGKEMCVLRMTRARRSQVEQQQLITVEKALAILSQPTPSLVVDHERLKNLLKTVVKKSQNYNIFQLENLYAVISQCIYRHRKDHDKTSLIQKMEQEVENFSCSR
readout.label: Kd

Tested on ATPase family AAA domain-containing protein 2 (Homo sapiens): Cc1nnc2n1-c1ccccc1C(c1ccccc1)=NC2NC(=O)OCc1ccccc1 (stereo unspecified) . Observed Kd: > 50 µM

Just for reference, ChEMBL document CHEMBL2150880 is where these values come from.
